Conditions: 298.15 K; 101.33 kPa; Liquid; Alternating current cell with electrodes
Listed below: electrical conductivity values for each entry.
measured-endpoint: electrical conductivity (S/m)

molecule | measured-endpoint | measured-number
CC(C)Cn1cc[n+](CC(C)C)c1.[Br-] [1,3-diisobutylimidazolium bromide] | electrical conductivity | 0.403
CCCCn1cc[n+](C)c1.[Br-] [1-butyl-3-methylimidazolium bromide] | electrical conductivity | 0.08
CC(C)Cn1cc[n+](C)c1.[Br-] [1-isobutyl-3-methylimidazolium bromide] | electrical conductivity | 0.2
CCCCn1cc[n+](CCCC)c1.[Br-] [1,3-dibutylimidazolium bromide] | electrical conductivity | 0.918
